Data origin, for the record: patent EP0525360B1

Overview of reported Urination across a group of compounds:
Test system: test animals
Experiment: Behavior analysis (side-effect or toxicity scores)
Assay type: in vivo
Parameters: key: behavior score; higher number = greater side effects
Conditions: dose 50mg/Kg; behavior score, normal value 0

compound	assayed.system	Urination
NCCOc1ccc(CC(=O)NCCCc2ccc(Cl)c(Cl)c2)cc1N	test animals	0
NCCOc1ccc(CC(=O)NCCCc2ccc(F)cc2)cc1N	test animals	0
NCCOc1ccc(CC(=O)NCCCc2ccc(Cl)cc2)cc1N	test animals	0
CCCCCCCC/C=C\CCCCCCCC(=O)NCc1ccc(OCCN)c(OC)c1 [NE-21610, reference compound]	test animals	0

---

Assay: acute toxicity test
Conditions: mouse, in vivo, po, per os; 5 ICR female mice, 5 weeks old; observed for 14 days; read-out: LD50(female)
Overview of reported LD50 at 336 h across a group of compounds:
measurement.name: LD50 at 336 h (mg/kg)

compound	op	result
Cc1cc(C)cc(CCCNC(=O)Cc2ccc(OCCN)c(F)c2)c1 [Example 15]	>	2000
COc1cc(CC(=O)NCCCc2cccc(C)c2)ccc1OCCN [Example 5]	=	125
Cc1ccc(CCCNC(=O)Cc2ccc(OCCN)c(F)c2)cc1 [Example 11]	=	322
COc1cc(CC(=O)NCCCc2ccc(C)c(C)c2)ccc1OCCN [Example 1]	=	364
